Data provenance is patent US20120149700A1.

- EXPERIMENTAL SYSTEM: P2X2/3 (Homo sapiens, UniProt P56373+Q9UBL9)
- Construct: expressed in transfected cells; host or cells: cell line stably expressing P2X2, stably transfected with P2X3 (e.g. HEK293 or 1321N1)
- Sequence (Q9UBL9 1-471): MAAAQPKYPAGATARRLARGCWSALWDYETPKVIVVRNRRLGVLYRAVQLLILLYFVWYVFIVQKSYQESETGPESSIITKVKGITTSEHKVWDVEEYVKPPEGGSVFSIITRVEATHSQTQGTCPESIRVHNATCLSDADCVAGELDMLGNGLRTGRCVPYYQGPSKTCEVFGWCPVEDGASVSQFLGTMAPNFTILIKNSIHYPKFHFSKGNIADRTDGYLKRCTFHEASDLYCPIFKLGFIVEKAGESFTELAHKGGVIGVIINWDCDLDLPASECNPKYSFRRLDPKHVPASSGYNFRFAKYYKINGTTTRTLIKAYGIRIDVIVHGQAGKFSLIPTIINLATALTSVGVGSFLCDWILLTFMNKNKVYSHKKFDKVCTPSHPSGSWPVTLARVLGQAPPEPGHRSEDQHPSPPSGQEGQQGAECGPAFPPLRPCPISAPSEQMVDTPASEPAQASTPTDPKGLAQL
- Sequence (P56373 1-397): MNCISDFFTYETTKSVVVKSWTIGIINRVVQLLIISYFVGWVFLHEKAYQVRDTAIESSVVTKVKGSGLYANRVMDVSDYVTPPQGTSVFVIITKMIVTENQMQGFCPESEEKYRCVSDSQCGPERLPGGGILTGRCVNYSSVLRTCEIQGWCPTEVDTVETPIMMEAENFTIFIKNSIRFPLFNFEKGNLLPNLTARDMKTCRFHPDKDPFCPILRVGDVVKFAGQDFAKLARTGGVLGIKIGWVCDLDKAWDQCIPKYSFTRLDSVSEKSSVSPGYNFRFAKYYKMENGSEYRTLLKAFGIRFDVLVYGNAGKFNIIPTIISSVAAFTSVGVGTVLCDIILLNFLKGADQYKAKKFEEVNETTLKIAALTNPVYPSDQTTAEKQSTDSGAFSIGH
- ASSAY EXPLANATION: Calcium uptake assay (P2X antagonist assay, inhibition of agonist-induced calcium influx), P2X2/3
- Assay type: cell-based
- REPORTED CONDITIONS: inhibition of agonist-induced calcium influx in cells expressing the receptor
OBSERVED PROPERTY: IC50 (nM)

Below, 2 molecules whose answers are already recorded.
{"MOLECULE": "Cc1ccc(N2CCc3ncnc(NCc4ccc5ocnc5c4)c3C2)c(C#N)c1 [Compound 38]", "EXPERIMENTAL SYSTEM": "P2X2/3 (Homo sapiens, UniProt P56373+Q9UBL9)", "UNIT TEXT": "nM", "IC50": 45}
{"MOLECULE": "Cc1ccc(N2CCc3ncnc(NCc4ccc(C5CC5)cn4)c3C2)c(C#N)c1 [Compound 30]", "EXPERIMENTAL SYSTEM": "P2X2/3 (Homo sapiens, UniProt P56373+Q9UBL9)", "UNIT TEXT": "nM", "IC50": 377}

P: Cc1ccc(N2CCc3ncnc(NCc4ccc(C)c(C#N)c4)c3C2)c(C#N)c1 [Compound 56]
Q: N#Cc1cc(Cl)ccc1N1CCc2ncnc(N[C@H](CO)c3ccc(C(F)F)nc3)c2C1 [Compound 72]
R: CCc1ccc(CNc2ncnc3c2CN(c2ccc(C)cc2C#N)CC3)cn1 [Compound 33]
S: CN(C)c1ccc(CNc2ncnc3c2CN(c2ccc(Cl)cc2C#N)CC3)cn1 [Compound 12]
Req: Please list these in order of increasing IC50. Thank you! The response must list the labels following the requested ordering.
Resp: P, R, Q, S
(P: 82 nM, R: 127 nM, Q: 404 nM, S: 1190 nM)
